TESTED_SYSTEM: TNF-alpha (Homo sapiens, UniProt P01375 P01375:77-233)
Sequence (P01375 77-233, one chain of several): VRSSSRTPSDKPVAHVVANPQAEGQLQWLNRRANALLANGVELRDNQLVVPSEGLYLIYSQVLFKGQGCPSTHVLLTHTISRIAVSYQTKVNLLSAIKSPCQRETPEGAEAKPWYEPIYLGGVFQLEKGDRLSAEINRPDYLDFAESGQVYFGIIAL
EXPERIMENTAL_DETAILS: competition; 125I-hTNFa binding to U937 cells, 4 C
CONDITION_INFO: tags: Genzyme or R&D Systems; chain copies: 3 inferred
MEASURE_NAME: pKi
Give bare numbers, as −log10 of the molar value.

Query block: Which pKi is listed for TNF 25A (ssRNA) RNA: GGGAGCUCAGAAUAAACGCUCAAGGCCGCAUGCCCCUCCUAACAGCAUGCAACUUCGACAUGAGGCCCGGAUCCGGC ?
Result block: 7.68

src = patent US5972599
